Source: patent US5177087A

Each item that follows carries a reported IC50.
# Tested target: cholinesterase (Rattus norvegicus)
# Construct: the S1 fraction of the cerebral cortex homogenate from male Wistar rats was used as cholinesterase source; from tissue; host or cells: cerebral cortex homogenate, S1 fraction, male Wistar rats
# Method notes: Anti-cholinesterase action, (acetyl-[^3 H])-acetylcholine as substrate, S1 fraction of cerebral cortex homogenate
# Type: biochemical, male Wistar rats
# Condition info: 30 minutes incubation, read-out: Anticholinesterase activity IC50
Give your result in µM as a bare value.

Example cases with answers are listed next.
{"columns": ["Compound", "IC50 / µM"],
 "data": [
  ["CN1CCN(c2ccc(C(=O)CCC3CCN(Cc4ccccc4)CC3)cc2)CC1 [Example 60-7]", 0.0084],
  ["O=C(CCC1CCN(Cc2ccccc2)CC1)c1ccc(NCCN2CCCCC2)cc1 [Example 60-22]", 0.017],
  ["O=C(CCC1CCN(Cc2ccccc2)CC1)c1ccc(N2CCNCC2)cc1 [Example 60-17]", 0.0061],
  ["CNc1ccc(C(=O)CCC2CCN(Cc3ccccc3)CC2)cc1 [Example 60-8]", 0.15],
  ["O=C(CCC1CCN(Cc2ccccc2)CC1)c1ccc(N2CCOCC2)cc1 [Example 60-20]", 0.015]
]}

Moving on to the next compound.
Which IC50 reading was recorded for the compound O=C(CCC1CCN(Cc2ccccc2)CC1)c1ccc(N2CCCC2)cc1 [Example 60-10] ? 0.04

---

# Method notes: Antihypoxic action: survival time of mice in a decompressed desiccator
# Assay type: in vivo, Male mice (ICR/Jcl strain)
# Condition info: Mus musculus, ip, read-out: survival time of drug-treated group (mean survival time of control group = 100)
Structures can show the parent of a compound that is named as a salt.
Listing of recorded response vs control in vivo at 0.5 mg/kg by entry.
API: value field is a number in %; no unit string.

{"columns": ["Compound", "Value unit", "response vs control in vivo at 0.5 mg/kg"],
 "data": [
  ["OC(c1ccc(N2CCCCC2)cc1N1CCCCC1)C1CCNCC1 (centres unmarked)", "%", 154],
  ["CN(C)c1ccc(CC2CCNCC2)cc1 [Example 20, dihydrochloride]", "%", 99],
  ["OC(c1ccc(N2CCC(Cc3ccccc3)CC2)cc1)C1CCNCC1 (centres unmarked)", "%", 162]
]}

Tell me the measured response vs control in vivo at 0.5 mg/kg of c1cc(N2CCCCC2)ccc1CC1CCNCC1 [Example 21-1, dihydrochloride] , please. 155

For the compound c1ccc(CC2CCN(c3ccc(CC4CCNCC4)cc3)CC2)cc1 , what response vs control in vivo at 0.5 mg/kg is on record? 147

---

# Tested target: cholinesterase (Rattus norvegicus, UniProt P37136)
# Construct: the S1 fraction of the cerebral cortex homogenate from male Wistar rats was used as cholinesterase source; from tissue; host or cells: cerebral cortex homogenate, S1 fraction, male Wistar rats
# Sequence (P37136 32-614): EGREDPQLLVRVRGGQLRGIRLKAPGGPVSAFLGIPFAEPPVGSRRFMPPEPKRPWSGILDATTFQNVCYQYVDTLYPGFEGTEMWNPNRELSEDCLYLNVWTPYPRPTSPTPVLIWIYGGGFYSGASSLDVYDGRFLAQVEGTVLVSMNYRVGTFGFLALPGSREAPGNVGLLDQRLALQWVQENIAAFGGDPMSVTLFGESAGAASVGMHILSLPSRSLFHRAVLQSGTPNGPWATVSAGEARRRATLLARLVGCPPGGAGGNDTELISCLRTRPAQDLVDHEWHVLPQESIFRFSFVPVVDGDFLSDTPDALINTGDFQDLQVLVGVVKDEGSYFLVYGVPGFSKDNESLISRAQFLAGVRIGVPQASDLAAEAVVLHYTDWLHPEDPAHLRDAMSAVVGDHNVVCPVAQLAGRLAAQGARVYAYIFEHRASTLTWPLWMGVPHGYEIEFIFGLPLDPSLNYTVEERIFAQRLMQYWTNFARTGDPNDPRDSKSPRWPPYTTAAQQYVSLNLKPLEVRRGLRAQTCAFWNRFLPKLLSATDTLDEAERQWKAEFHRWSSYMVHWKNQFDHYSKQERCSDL
# Method notes: Anti-cholinesterase action, (acetyl-[^3 H])-acetylcholine as substrate, S1 fraction of cerebral cortex homogenate
# Type: biochemical, male Wistar rats
# Condition info: 30 minutes incubation, read-out: Anticholinesterase activity IC50
Observed property: pIC50
Note: pIC50 values are expressed as the negative base-10 logarithm of concentration in M.

In the examples that follow, each entry is paired with its recorded pIC50.
{"columns": ["Molecule", "pIC50"],
 "data": [
  ["O=C(CCC1CCN(Cc2ccccc2)CC1)c1ccc(N2CCOCC2)cc1 [Example 60-5]", 8.00],
  ["O=C(CCC1CCN(Cc2ccccc2)CC1)c1ccc(N2CCCCC2)cc1 [Example 60-1]", 7.28]
]}

# lookup: pIC50 of O=C(CCC1CCN(Cc2ccccc2)CC1)c1ccc(N2CCCC2)cc1 [Example 60-12] 7.55

Given the entry CCNc1ccc(C(=O)CCC2CCN(Cc3ccccc3)CC2)cc1 [Example 60-4] , report its measured pIC50. 7.01
